- testName: small-molecule microarray binders of probe aCHRDL2, primary screen, biochemical, biotinylated probe, 635/667 nm fluorescence (AID 1100)
- conditionInfo: higher = more signal
Reported composite z-score values follow for various compounds

Here's what some known entries look like.
compound: COc1ccc(CCN2C(=O)[C@@]3(c4ccc([N+](=O)[O-])cc4)CC(=O)N(C4CCCCC4)[C@@H]3c3ccc(CO)cc32)cc1
outcomeMeasure: composite z-score
result: 0.181

compound: CC(CO)N1C(=O)[C@@H]2C3C(=O)OCCC/C=C\[C@H]3OC23C=CCN(c2ccc4ccccc4c2)C(=O)[C@@H]13 (some centres undefined)
outcomeMeasure: composite z-score
result: 0.128

compound: COCCOC(=O)N1C(=O)[C@@]2(c3cc(C#CC4=CCCCC4)ccc31)[C@H](C(=O)N1CCc3cc(OC)c(OC)cc3C1)[C@H]1C(=O)O[C@H](c3ccccc3)[C@H](c3ccccc3)N1[C@@H]2c1ccc(OCCO)cc1
outcomeMeasure: composite z-score
result: -0.134

compound: O=C1OCC=C[C@H]2OC34C=CCN(CCN5CCOCC5)C(=O)[C@H]3N(CCCO)C(=O)[C@@H]4[C@@H]12 (some centres undefined)
outcomeMeasure: composite z-score
result: -0.0654

Record summary for C=C(COC)/C(=C/C[C@@H](OC(C)=O)c1ccc(CO)o1)c1cnc2ccccc2c1 : reported composite z-score = -0.189

Short answer for O=C1NC(=O)C2C1C=CC(C(O)c1ccccc1)N2Nc1ccc(Cl)cc1Cl (centres undefined) : composite z-score was 0.914

Given item COc1ccc(C(=O)Nc2ccc(CN3C(=O)[C@@]4(O[C@@H](CCO)[C@H]([Si](C)(C)c5ccc(OC)cc5)[C@H]4C)c4ccccc43)cc2)cc1 , the value recorded as its composite z-score is 0.47

The recorded composite z-score for entry COC(=O)C=C(CC(O)c1cccc(Cl)c1)OC (centres undefined) equals 0.48

Record COc1ccc([Si](C)(C)[C@H]2[C@H](CC(=O)N3Cc4ccccc4C[C@H]3CO)O[C@@]3(C(=O)N(Cc4ccc(N5CCC5=O)cc4)c4ccccc43)[C@@H]2C)cc1 . Reported composite z-score: 0.51

Entry under test: C[C@@]1([C@@H](NC(=O)c2ccccc2)c2ccc(-c3ccccc3)cc2)C[C@H]1C1CCCCC1 . Its composite z-score was 1.26

Entry under test: O=C1O[C@H](c2ccccc2)[C@H](c2ccccc2)N2[C@H]1[C@@H](C(=O)Nc1nc3ccccc3s1)[C@]1(C(=O)Nc3ccc(C#CC4(O)CCCCCC4)cc31)[C@H]2c1ccc(OCCO)cc1 . Its composite z-score was 0.531

Measured composite z-score of COc1ccc([C@H]2C[C@H]3C(Br)=C[C@@H]2C(=O)[C@]32CO2)cc1 : -0.193

The recorded composite z-score for O=C1NC(=O)C2C1C=CC(C(O)Cc1ccccc1)N2Nc1ccc(Cl)cc1Cl (centres undefined) is 1.09

Measured composite z-score of COc1ccc(C(=O)Nc2ccc(CN3C(=O)[C@@]4(O[C@@H](CC(=O)N5CCC[C@H]5CO)[C@H]([Si](C)(C)c5ccc(OC)cc5)[C@H]4C)c4ccccc43)cc2)cc1 : -0.0233

---

Entries and their composite z-score
- targetUnderTest: Dickkopf-related protein 1 (Homo sapiens)
- testName: DKK1 binders on small-molecule microarrays, primary screen, biochemical, small-molecule microarray, 635 nm fluorescence scan (AID 1106);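 note: score merges emission near 667 nm with signal to noise over three replicate slides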
- conditionInfo: DKK1 binding, higher = more signal
The answer should be written as a number, with no unit following it.

compound: COC(=O)[C@@]1(Cc2ccccc2)[C@H]2c3cc(C(=O)N4CCCC4)n(CC4CC4)c3C[C@H]2CN1C(=O)c1ccccc1
composite z-score: -0.23

composite z-score reported for this compound O=C1O[C@H](c2ccccc2)[C@H](c2ccccc2)N2[C@H]1[C@@H](C(=O)O)[C@]1(C(=O)Nc3ccc(C#CC4=CCCCC4)cc31)[C@H]2c1ccccc1OCCO : 0.455

For record [N-]=[N+]=NCc1ccccc1[C@@H]1OC(c2ccc(OCCCO)cc2)=N[C@]1(CCS(=O)(=O)c1ccccc1)C(=O)NCc1ccccc1 the listed composite z-score is 0.494

---

Let's look at some compounds and their measured z-score.
- testName: basal S. cerevisiae growth modulation, no modifier, primary screen, OD600, strain BY4716, 24 h, basal condition (AID 1173)
- conditionInfo: OD600, 24 h, higher = more signal, called active from +8 up or from −8 down
The source made the active and inactive calls.

compound: COc1ccc(C(=O)O[C@H]2CC[C@]3(C)C4=C(CCC3C2(C)C)[C@]2(C)CC[C@H]([C@H](C)CCCC(C)C)[C@@]2(C)CC4)cc1 (stereo partly drawn)
result: 1.77 (inactive)

compound: COc1ccc([Si](C)(C)[C@H]2[C@H](CCn3cc([C@H](O)c4ccccc4)nn3)O[C@@]3(C(=O)N(Cc4cccc(N5CCOC5=O)c4)c4ccccc43)[C@@H]2C)cc1
result: 0.548 (inactive)

# input for lookup
Form: compound = Cc1ccc(S[C@]2(C(=O)NCCN3CCOCC3)CC(=O)N(Cc3ccccc3)[C@@H]2c2ccc(CO)cc2I)cc1 ; z-score = -3.23 (inactive)

---

Quick reference: z-score of the listed items.
- testName: yeast growth modulation, basal conditions, primary screen, YJM789 clinical isolate, OD600, 24 h (AID 1089);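 note: growth of clinical yeast isolate S. cerevisiae YJM 789 seeded 1000 cells per well; test concentration not given here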
- conditionInfo: S. cerevisiae YJM789 growth, higher = more signal, called active from +8 up or from −8 down
Provide a numeric answer; units are not to be included.

molecule: CC(C)C[C@H]1NC(=O)[C@@]23C(=O)N[C@@H](Cc4ccccc4)C2[C@H](C)[C@@]2(C)O[C@H]2C3/C=C/C/C=C\CNC(=O)[C@H](Cc2ccccc2)NC1=O (some centres undefined)
outcomeMeasure: z-score
readoutNumber: 0.871

get_value(item= COc1cc(CO)cc(I)c1O[C@H]1C=C(C(=O)NCCO)C[C@@H](N(CCN2CCOCC2)C(=O)C2CCOC2)[C@@H]1O (some centres undefined) , readout=z-score) returns -0.263

Looking up CO[C@H]1O[C@H](CO)[C@@H](OC(=O)Nc2ccc(Br)cc2)[C@H](OC(=O)c2cc3ccccc3[nH]2)[C@H]1OC(=O)c1cc2ccccc2[nH]1 , I see its z-score listed as -1.96

---

- testName: small-molecule microarray binders of probe aXIP, primary screen, biochemical, NeuroSMM set, 635/667 nm fluorescence (AID 1119);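 note: probe is the protein aXip251-270 applied at 1 µg/mL to compound-printed slides; binding of probe to printed compounds measured as 667 nm fluorescence plus signal to noise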
- conditionInfo: higher = more signal, called active from +8 up or from −8 down
outcomeMeasure: composite Z-score
Could you respond with only the numeric value?

molecule: CCN(CC)c1ccc(N2CC=CC34O[C@@H]5/C=C\CCC(C)OC(=O)C5[C@H]3C(=O)N(C(CO)C(C)C)[C@@H]4C2=O)cc1 (some centres not stated)
outcomeMeasure: composite Z-score
readoutNumber: 0.211

Note to self: composite Z-score recorded for COCCOC(=O)N1C(=O)[C@@]2(c3cc(C#CC4=CCCCC4)ccc31)[C@H](C(=O)Nc1nc3ccccc3s1)[C@H]1C(=O)O[C@H](c3ccccc3)[C@H](c3ccccc3)N1[C@@H]2c1ccc(OCCO)cc1 was -0.114

response.value for COC(=O)[C@@]1(Cc2ccc(OC)cc2)[C@H]2c3cc(C(=O)N4CCCC4)n(Cc4ccc(OC)c(OC)c4)c3C[C@H]2CN1C(=O)c1ccccc1 (field: composite Z-score) = 0.983

composite Z-score reported for this molecule CN1C2C=C(CCCO)C(C3C(=O)N(C(N)=O)C(=O)C32)C1c1ccc(CN2CCCC2)cc1 (configuration not stated) : -0.275

Lab note: measured composite Z-score of [N-]=[N+]=NCc1ccccc1C[C@]1(C(=O)NCC(O)CO)N=C(c2ccc(OCCCO)cc2)O[C@H]1c1ccccc1 (some centres not stated) was -0.321

// composite Z-score lookup, molecule = COc1cc(OC)c(C(O)C2C=CC3C(=O)NC(=O)C3N2Nc2ccc(Cl)cc2Cl)cc1Br (configuration not stated) , result: 2.76

# composite Z-score of CN(C)C(=O)[C@]1(Cc2ccccc2CN=[N+]=[N-])N=C(c2ccc(OCCCO)cc2)O[C@@H]1c1ccccc1CN=[N+]=[N-] = -0.384

---

- targetUnderTest: Alpha-bungarotoxin (Bungarus multicinctus) (UniProt P60615)
- Sequence (P60615 whole entry, looked up): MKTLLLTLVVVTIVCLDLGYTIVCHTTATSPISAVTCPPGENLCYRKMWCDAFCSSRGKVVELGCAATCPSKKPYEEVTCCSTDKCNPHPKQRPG
- testName: alpha-bungarotoxin binders on microarray, profiling panel, artefact control for SMM control protein annotation, biochemical, small-molecule microarray, Alexa647 label, 635/667 nm fluorescence (AID 1117)
- conditionInfo: alpha-BTX-A647 binding fluorescence, higher = more signal
outcomeMeasure: composite z-score
I'd appreciate a reply containing only the number, no unit.

Example cases with answers are listed next.
compound: COc1ccc([Si](C)(C)[C@@H]2[C@@H](CC(=O)N3Cc4ccccc4C[C@H]3CO)O[C@]3(C(=O)N(C)c4c(Br)cc(C)cc43)[C@H]2C)cc1
composite z-score: 1.01

compound: CCCCN1CC=CC23O[C@@H]4C=CCOC(=O)[C@@H]4[C@H]2C(=O)N(CCCCCO)[C@@H]3C1=O (stereo partly drawn)
composite z-score: -1.47

compound: CN1C(=O)C2C=CC(C(O)c3ccc(-c4ccccc4)s3)N(N(c3ccccc3)c3ccccc3)C2C1=O (stereo not drawn)
composite z-score: 1.37

compound: C=C[C@H](COC(C)=O)N(C(=O)OC(C)(C)C)S(=O)(=O)c1ccc(Br)cc1
composite z-score: 0.397

compound: C#CCN(CC1=CCCCC1)[C@H](c1ccccc1Br)[C@@H](O)Cc1ccccc1
composite z-score: 0.92

Fill in: Alpha-bungarotoxin (Bungarus multicinctus) (UniProt P60615) composite z-score for CN1C(=O)C2C=CC(C(O)c3ccccc3)N(Nc3ccccc3)C2C1=O (stereo not drawn) = 0.201

The measured composite z-score that COC(=O)C(CC#Cc1ccc2c(c1)[C@]1(C(=O)N2)[C@H](C(=O)O)[C@H]2C(=O)O[C@H](c3ccccc3)[C@H](c3ccccc3)N2[C@@H]1c1ccc(O)cc1)C(=O)OC showed for Alpha-bungarotoxin (Bungarus multicinctus) (UniProt P60615) is -0.472

// assay Alpha-bungarotoxin (Bungarus multicinctus) (UniProt P60615), entry COC(=O)[C@@]1(Cc2ccc(F)cc2)[C@@H]2[C@@H](CC(=O)[C@H]2CC(=O)C(=O)N(C)C)CN1C(=O)c1ccccc1 , composite z-score value = 1.15
